# measured on: LHRH (Rattus norvegicus, UniProt P30969)
# Construct: endogenous in cells; host or cells: rat pituitary cells (own knowledge of the cited Haviv 1989 method)
# Sequence (P30969 whole entry): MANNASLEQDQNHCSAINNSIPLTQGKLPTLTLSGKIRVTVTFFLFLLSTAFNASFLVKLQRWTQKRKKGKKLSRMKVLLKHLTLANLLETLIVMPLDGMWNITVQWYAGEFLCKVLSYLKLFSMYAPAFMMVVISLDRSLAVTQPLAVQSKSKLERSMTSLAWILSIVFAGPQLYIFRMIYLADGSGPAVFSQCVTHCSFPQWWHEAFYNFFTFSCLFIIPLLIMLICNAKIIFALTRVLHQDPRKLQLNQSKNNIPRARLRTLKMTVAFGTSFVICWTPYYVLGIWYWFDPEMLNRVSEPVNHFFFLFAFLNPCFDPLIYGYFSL
# method summary: in vitro test for LHRH antagonist potency (pA2)
# Format: cell-based
# assay context: negative logarithm of the antagonist concentration required to shift the response curve produced by the agonist leuprolide to two-fold higher concentration
Non-standard residues stand in square brackets, D forms with d. Residues, ends and D or L forms follow the SMILES beside them. *: point of attachment. Shikimoyl = O=C(C1=C[C@@H](O)[C@@H](O)[C@H](O)C1)*; dPhe(4-Cl) = N[C@H](Cc1ccc(Cl)cc1)C(=O)O; d2Nal = N[C@H](Cc1ccc2ccccc2c1)C(=O)O; d(hCit) = NC(=O)NCCCC[C@@H](N)C(=O)O; Lys(iPr) = CC(C)NCCCC[C@H](N)C(=O)O; NMeY = CN[C@@H](Cc1ccc(O)cc1)C(=O)O; NMeF = CN[C@@H](Cc1ccccc1)C(=O)O; dCit = NC(=O)NCCC[C@@H](N)C(=O)O; hArg = N=C(N)NCCCC[C@H](N)C(=O)O; d3Pal = N[C@H](Cc1cccnc1)C(=O)O; Nicotinoyl = O=C(c1cccnc1)*; X1 = O=C([C@@H]1CCCO1)*; X6 = O=C(c1ccoc1)*
measured property: Kb (nM)
Kindly answer with a numeric value in nM, unit omitted.

Answered cases to consult:
compound: CC(C)C[C@H](NC(=O)[C@@H](CCCCNC(N)=O)NC(=O)[C@H](Cc1ccc(O)cc1)NC(=O)[C@H](CO)NC(=O)[C@@H](Cc1cccnc1)NC(=O)[C@@H](Cc1ccc(Cl)cc1)NC(=O)[C@@H](Cc1ccc2ccccc2c1)NC(=O)CNC(=O)[C@@H]1CCCO1)C(=O)N[C@@H](CCCCNC(C)C)C(=O)N1CCC[C@H]1C(=O)N[C@H](C)C(N)=O [Example 93] (X1-G[d2Nal][dPhe(4-Cl)][d3Pal]SY[d(hCit)]L[Lys(iPr)]P[dA]-NH2)
Kb / nM: 0.00589
//
compound: CC(C)C[C@H](NC(=O)[C@H](CCCCNC(=O)c1cccnc1)NC(=O)[C@H](Cc1ccc(O)cc1)N(C)C(=O)[C@H](CO)NC(=O)[C@@H](Cc1cccnc1)NC(=O)[C@@H](Cc1ccc(Cl)cc1)NC(=O)[C@@H](Cc1ccc2ccccc2c1)NC(=O)CNC(=O)[C@@H]1CCCO1)C(=O)N[C@@H](CCCCNC(C)C)C(=O)N1CCC[C@H]1C(=O)N[C@H](C)C(N)=O [Example 85]
Kb / nM: 0.0112
//
compound: CC(C)C[C@H](NC(=O)[C@@H](CCCNC(N)=O)NC(=O)[C@H](Cc1ccc(O)cc1)N(C)C(=O)[C@H](CO)NC(=O)[C@@H](Cc1cccnc1)NC(=O)[C@@H](Cc1ccc(Cl)cc1)NC(=O)[C@@H](Cc1ccc2ccccc2c1)NC(=O)[C@@H]1CCCO1)C(=O)N[C@@H](CCCNC(=N)N)C(=O)N1CCC[C@H]1C(=O)N[C@H](C)C(N)=O [Example 76] (X1-[d2Nal][dPhe(4-Cl)][d3Pal]S[NMeY][dCit]LRP[dA]-NH2)
Kb / nM: 0.0355
//
compound: CC(C)C[C@H](NC(=O)[C@@H](CCCCNC(=O)c1cccnc1)NC(=O)[C@H](Cc1ccc(O)cc1)N(C)C(=O)[C@H](CO)NC(=O)[C@@H](Cc1cccnc1)NC(=O)[C@@H](Cc1ccc(Cl)cc1)NC(=O)[C@@H](Cc1ccc2ccccc2c1)NC(=O)CNC(=O)c1ccoc1)C(=O)N[C@@H](CCCCNC(C)C)C(=O)N1CCC[C@H]1C(=O)N[C@H](C)C(N)=O [Example 2d] (X6-G[d2Nal][dPhe(4-Cl)][d3Pal]S[NMeY][dK](Nicotinoyl)L[Lys(iPr)]P[dA]-NH2)
Kb / nM: 0.0126

// moving on: another record for Kb
Check the records and state Kb for CC(C)C[C@H](NC(=O)[C@@H](CCCCNC(=O)C1=C[C@@H](O)[C@@H](O)[C@H](O)C1)NC(=O)[C@H](Cc1ccccc1)N(C)C(=O)[C@H](CO)NC(=O)[C@@H](Cc1cccnc1)NC(=O)[C@@H](Cc1ccc(Cl)cc1)NC(=O)[C@@H](Cc1ccc2ccccc2c1)NC(=O)CNC(=O)c1cccnc1)C(=O)N[C@@H](CCCCNC(=N)N)C(=O)N1CCC[C@H]1C(=O)N[C@H](C)C(N)=O [Example 26a] (Nicotinoyl-G[d2Nal][dPhe(4-Cl)][d3Pal]S[NMeF][dK](Shikimoyl)L[hArg]P[dA]-NH2) 0.0275

====

# measured on: LHRH (Rattus norvegicus, UniProt P30969)
# Construct: endogenous in cells; host or cells: rat pituitary cells (own knowledge of the cited Haviv 1989 method)
# method summary: in vitro test for LHRH antagonist potency (pA2)
# Format: cell-based
# assay context: negative logarithm of the antagonist concentration required to shift the response curve produced by the agonist leuprolide to two-fold higher concentration
Non-standard residues stand in square brackets, D forms with d. Residues, ends and D or L forms follow the SMILES beside them. ξ: configuration not given here. *: point of attachment. Shikimoyl = O=C(C1=C[C@@H](O)[C@@H](O)[C@H](O)C1)*; ξTetrahydrofuran2carbonyl = O=C(C1CCCO1)*; dPhe(4-Cl) = N[C@H](Cc1ccc(Cl)cc1)C(=O)O; d2Nal = N[C@H](Cc1ccc2ccccc2c1)C(=O)O; d(hCit) = NC(=O)NCCCC[C@@H](N)C(=O)O; Lys(iPr) = CC(C)NCCCC[C@H](N)C(=O)O; NMeY = CN[C@@H](Cc1ccc(O)cc1)C(=O)O; dCit = NC(=O)NCCC[C@@H](N)C(=O)O; d3Pal = N[C@H](Cc1cccnc1)C(=O)O; Nicotinoyl = O=C(c1cccnc1)*; Tos = Cc1ccc(S(=O)(=O)*)cc1; X2 = O=C1CC[C@@H](C(=O)*)O1; X1 = O=C([C@@H]1CCCO1)*; X3 = O=C([C@@H]1CCOC1)*; Sar = CNCC(=O)O
In this section, each of the compounds is paired with its reported Kb.
Use nM as the unit, but write only the number.

Would you please look over these solved cases?
compound: CC(C)C[C@H](NC(=O)[C@@H](CCCNC(N)=O)NC(=O)[C@H](Cc1ccc(O)cc1)N(C)C(=O)[C@H](CO)NC(=O)[C@@H](Cc1cccnc1)NC(=O)[C@@H](Cc1ccc(Cl)cc1)NC(=O)[C@@H](Cc1ccc2ccccc2c1)NC(=O)[C@@H](C)NC(=O)C1=C[C@@H](O)[C@@H](O)[C@H](O)C1)C(=O)N[C@@H](CCCNC(=N)N)C(=O)N1CCC[C@H]1C(=O)N[C@H](C)C(N)=O [Example 13e] (Shikimoyl-[dA][d2Nal][dPhe(4-Cl)][d3Pal]S[NMeY][dCit]LRP[dA]-NH2)
Kb (nM): 0.0316

compound: CC[C@H](C)[C@H](NC(=O)[C@@H](CCCCNC(=O)C1=C[C@@H](O)[C@@H](O)[C@H](O)C1)NC(=O)[C@H](Cc1ccc(O)cc1)N(C)C(=O)[C@H](CO)NC(=O)[C@@H](Cc1cccnc1)NC(=O)[C@@H](Cc1ccc(Cl)cc1)NC(=O)[C@@H](Cc1ccc2ccccc2c1)NC(=O)CNC(=O)C1=C[C@@H](O)[C@@H](O)[C@H](O)C1)C(=O)N[C@@H](CCCNC(=N)N)C(=O)N1CCC[C@H]1C(=O)N[C@H](C)C(N)=O [Example 18a] (Shikimoyl-G[d2Nal][dPhe(4-Cl)][d3Pal]S[NMeY][dK](Shikimoyl)IRP[dA]-NH2)
Kb (nM): 0.0166

compound: CC(C)C[C@H](NC(=O)[C@@H](CCCNC(N)=O)NC(=O)[C@H](Cc1ccc(O)cc1)N(C)C(=O)[C@H](CO)NC(=O)[C@@H](Cc1cccnc1)NC(=O)[C@@H](Cc1ccc(Cl)cc1)NC(=O)[C@@H](Cc1ccc2ccccc2c1)NC(=O)[C@@H]1CCC(=O)O1)C(=O)N[C@@H](CCCNC(=N)N)C(=O)N1CCC[C@H]1C(=O)N[C@H](C)C(N)=O [Example 78b] (X2-[d2Nal][dPhe(4-Cl)][d3Pal]S[NMeY][dCit]LRP[dA]-NH2)
Kb (nM): 0.00832

compound: CC(C)C[C@H](NC(=O)[C@@H](CCCCNC(=O)c1cccnc1)NC(=O)[C@H](Cc1ccc(O)cc1)N(C)C(=O)[C@H](CO)NC(=O)[C@@H](Cc1cccnc1)NC(=O)[C@@H](Cc1ccc(Cl)cc1)NC(=O)[C@@H](Cc1ccc2ccccc2c1)NC(=O)[C@@H]1CCOC1)C(=O)N[C@@H](CCCCNC(C)C)C(=O)N1CCC[C@H]1C(=O)N[C@H](C)C(N)=O [Example 70] (X3-[d2Nal][dPhe(4-Cl)][d3Pal]S[NMeY][dK](Nicotinoyl)L[Lys(iPr)]P[dA]-NH2)
Kb (nM): 0.0126

compound: CC(C)C[C@H](NC(=O)[C@@H](CCCCNC(N)=O)NC(=O)[C@H](Cc1ccc(O)cc1)N(C)C(=O)[C@H](CO)NC(=O)[C@@H](Cc1cccnc1)NC(=O)[C@@H](Cc1ccc(Cl)cc1)NC(=O)[C@@H](Cc1ccc2ccccc2c1)NC(=O)CNC(=O)[C@@H]1CCCO1)C(=O)N[C@@H](CCCCNC(C)C)C(=O)N1CCC[C@H]1C(=O)N[C@H](C)C(N)=O [Example 92] (X1-G[d2Nal][dPhe(4-Cl)][d3Pal]S[NMeY][d(hCit)]L[Lys(iPr)]P[dA]-NH2)
Kb (nM): 0.0105

Tell me its Kb given Cc1ccc(S(=O)(=O)N[C@H](Cc2ccc3ccccc3c2)C(=O)N[C@H](Cc2ccc(Cl)cc2)C(=O)N[C@H](Cc2cccnc2)C(=O)N[C@@H](CO)C(=O)N(C)[C@@H](Cc2ccc(O)cc2)C(=O)N[C@H](CCCNC(N)=O)C(=O)N[C@@H](CC(C)C)C(=O)N[C@@H](CCCNC(=N)N)C(=O)N2CCC[C@H]2C(=O)N[C@H](C)C(N)=O)cc1 [Example 66] (Tos-[d2Nal][dPhe(4-Cl)][d3Pal]S[NMeY][dCit]LRP[dA]-NH2) as the entry. 2.63

Check the records and state Kb for CC(C)C[C@H](NC(=O)[C@@H](CCCNC(N)=O)NC(=O)[C@H](Cc1ccc(O)cc1)N(C)C(=O)[C@H](CO)NC(=O)[C@@H](Cc1cccnc1)NC(=O)[C@@H](Cc1ccc(Cl)cc1)NC(=O)[C@@H](Cc1ccc2ccccc2c1)NC(=O)CNC(=O)C1CCCO1)C(=O)N[C@@H](CCCNC(=N)N)C(=O)N1CCC[C@H]1C(=O)N[C@H](C)C(N)=O (stereo partly drawn) [Example 13a] (ξTetrahydrofuran2carbonyl-G[d2Nal][dPhe(4-Cl)][d3Pal]S[NMeY][dCit]LRP[dA]-NH2) 0.00447

Give reported Kb value for CC(C)C[C@H](NC(=O)[C@@H](CCCCNC(=O)c1cccnc1)NC(=O)[C@H](Cc1ccc(O)cc1)N(C)C(=O)[C@H](CO)NC(=O)[C@@H](Cc1cccnc1)NC(=O)[C@@H](Cc1ccc(Cl)cc1)NC(=O)[C@@H](Cc1ccc2ccccc2c1)NC(=O)CN(C)C(=O)[C@@H]1CCCO1)C(=O)N[C@@H](CCCCNC(C)C)C(=O)N1CCC[C@H]1C(=O)N[C@H](C)C(N)=O [Example 99] (X1-[Sar][d2Nal][dPhe(4-Cl)][d3Pal]S[NMeY][dK](Nicotinoyl)L[Lys(iPr)]P[dA]-NH2) 0.0117

Give the measured Kb for CC(C)C[C@H](NC(=O)[C@@H](CCCCNC(=O)c1cccnc1)NC(=O)[C@H](Cc1ccc(O)cc1)N(C)C(=O)[C@H](CO)NC(=O)[C@@H](Cc1cccnc1)NC(=O)[C@@H](Cc1ccc(Cl)cc1)NC(=O)[C@@H](Cc1ccc2ccccc2c1)NC(=O)CNC(=O)C1=C[C@@H](O)[C@@H](O)[C@H](O)C1)C(=O)N[C@@H](CCCCNC(C)C)C(=O)N1CCC[C@H]1C(=O)N[C@H](C)C(N)=O [Example 2a] (Shikimoyl-G[d2Nal][dPhe(4-Cl)][d3Pal]S[NMeY][dK](Nicotinoyl)L[Lys(iPr)]P[dA]-NH2) 0.0282
